- Test system: F380Y
- experiment: modulators of BK channel variants, profiling panel, selectivity assay, cell-based, U2OS BacMam, thallium flux, beta subunits (AID 1259406);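 note: initial slope of Thallos dye fluorescence rise after thallium is added; log ratio against the mean of 0.3% DMSO vehicle wells on the same plate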
- assay_setup: at 30 µM
log fold change Tl+ flux values by entry
parameter: log fold change Tl+ flux

# compound, data_value
data = [
    ("Cc1cc(C)n2nc(Sc3ncccc3[N+](=O)[O-])nc2n1", 0.0293),
    ("CO[C@H]1/C=C/O[C@@]2(C)Oc3c(C)c(O)c4c(O)c(c5c(c4c3C2=O)NC2(CCN(CC(C)C)CC2)N=5)=NC(=O)/C(C)=C\\C=C\\[C@H](C)[C@H](O)[C@@H](C)[C@@H](O)[C@@H](C)[C@H](OC(C)=O)[C@@H]1C", 0.0411),
    ("Cc1onc(-c2ccccc2)c1C(=O)NC1C(=O)N2C1SC(C)(C)C2C(=O)O (centres undefined)", -0.000886),
    ("Cc1[nH]n(-c2c(Cl)cc(C(F)(F)F)cc2Cl)c(=O)c1N=Nc1ccccc1", 0.0138),
]

----------
- experiment: growth inhibition of DIPG glioma cells, dose response, cell-based, SU-DIPG-IV, MIPE4.0, CellTiter-Glo, qHTS (AID 1347063);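 note: compound exposure lasted 48 hours before the viability readout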
- assay_setup: SU-DIPG-IV viability, CellTiter-Glo ATP luminescence
Records with an inconclusive call do not appear. The source made the active and inactive calls. Cut-off not given; nearly all actives show AC50 up to about 30 µM.
Outcome codes: active, inactive

# molecule, cat
measured = [
    ("Oc1ccc2ccccc2c1SSc1c(O)ccc2ccccc12", "active"),
    ("CC(C)C[C@H](NC(=O)[C@@H](O)[C@H](N)Cc1ccccc1)C(=O)O", "active"),
    ("CCN(CC)CCOc1ccc(Nc2ncc3cc(-c4c(Cl)cccc4Cl)c(=O)n(C)c3n2)cc1", "active"),
    ("O=C(c1ccc(Nc2nccc(-c3cc4ccccc4s3)n2)cc1)N1CCC(N2CCCC2)CC1", "active"),
    ("N#C[C@@H]1C[C@@H]2C[C@@H]2N1C(=O)[C@@H](N)C12CC3CC(CC(O)(C3)C1)C2", "inactive"),
    ("COC1CCC(C(=O)c2ccc3nc4c(cc3c2)CCCO4)CC1 (stereo not given)", "active"),
    ("O=C(O)c1ccc2cc(-c3ccc(O)c(C45CC6CC(CC(C6)C4)C5)c3)ccc2c1", "active"),
    ("CCCCC[C@H](O)/C=C/[C@H]1[C@H](O)CC(=O)[C@@H]1CCCCCCC(=O)O", "inactive"),
    ("O=C1C(Cl)=C(NCCN2CCOCC2)C(=O)c2ncccc21", "active"),
    ("COc1ccc(Nc2nccc(NCCO)n2)cc1", "inactive"),
]

----------
- experiment: differential killing of epithelial or mesenchymal cells, primary screen, imaging, PC-3E GFP, TEM4-18 mCherry, co-culture (AID 1345086);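 note: cells exposed to compound for 72 h before imaging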
- assay_setup: imaging cell counts, measured here: epithelial PC-3E GFP cell survival, at 1 µM
normalised cell number values by entry

# compound, normalised cell number
records = [
    ("Cc1c(-c2cnccn2)ssc1=S", 0.9),
    ("CCC[C@@H]1Cc2cc3c(-c4c(O)cc(O)c5c(O)c6c(cc45)C[C@@H](CCC)OC6=O)c(O)cc(O)c3c(O)c2C(=O)O1", 1.2),
    ("COC(=O)/C=C/C(=O)OC", 0.84),
    ("NCCCNCCCCNCCCN", 0.96),
    ("CC(C)NC[C@H](O)COc1cccc2ccccc12", 1),
    ("Cc1cnc(C(=O)NCCc2ccc(S(=O)(=O)NC(=O)NC3CCCCC3)cc2)cn1", 0.87),
    ("C=CC(C1=CC(=O)C=CC1=O)c1ccccc1 (stereo not given)", 1.13),
    ("COC1CC2CCC(C)C(O)(O2)C(=O)C(=O)N2CCCCC2C(=O)OC(C(C)CC2CCC(O)C(OC)C2)CC(=O)C(C)/C=C(\\C)C(O)C(OC)C(=O)C(C)CC(C)/C=C/C=C/C=C/1C (stereo not given)", 0.36),
    ("O=C(O)[C@@H](S)[C@@H](S)C(=O)O", 0.95),
    ("COc1cccc(Oc2c(O)cc(C)cc2CC(=O)c2cc(C)cc(O)c2C(=O)c2c(O)cccc2O)c1C(=O)O", 1.09),
]
